- Test target: the molecule itself
- Test protocol: homodimerisation; method not stated (FIG. 2)

>  <Protein>
homodimeric coiled-coil (HomoCC) (designed binder) DEEQRKVVEEDLKVLEHLRRVVERKEHLVRDAYEETFDDQQREVVREKLKVLEHLEKVIERDRHLSSRPGL

>  <Kd, µM>
7.6

$$$$
